Attribute: MIC
# System: Acinetobacter baumannii
# Protocol notes: microbe, parasite or virus in culture
# Settings: ATCC 19606, 18 h, ASSAY_TEST Inhibition of Bacterial Growth, detection method Absorption (OD600), MEDIA CAMHB, plate type 384well, NBS, CORNING #3640
# Description: Antibacterial activity against Acinetobacter baumannii ATCC 19606 (CO-ADD:GN_034); MIC in CAMBH media using NBS plates, by OD600

Exercise: # query: MIC of entry COc1cccc(C(=N)Nc2cc(C(=O)Nc3cc(C(=O)Nc4cc(C(=O)NCCCN(C)C)n(CCC(C)C)c4)n(C)c3)n(C)c2)c1
Key: > 32 µg/mL

Exercise: I am curious: what MIC value has been reported for CC(C)CCc1sc(NC(=O)c2cc(NC(=O)c3cc4ccccc4cn3)cn2C)nc1C(=O)NCCCN(C)C.O=C(O)C(F)(F)F ?
Key: > 32 µg/mL

Exercise: For COc1ccc(/C=C/c2ccc(C(=O)Nc3cc(C(=O)Nc4cc(C(=O)NCCN5CCC(OC)CC5)n(C)c4)n(C)c3)cn2)cc1.O=C(O)C(F)(F)F.O=C(O)C(F)(F)F , what is its reported MIC?
Key: > 32 µg/mL

Exercise: For the molecule COc1cccc(/C=C/c2ccc(C(=O)Nc3cc(C(=O)Nc4cc(C(=O)NCCN5CCCCC5)n(CCCc5ccccc5)c4)n(C)c3)cc2)c1.O=C(O)C(F)(F)F , what MIC is on record?
Key: > 32 µg/mL

Exercise: Param item = COCCOC1CCN(CCNC(=O)c2cc(NC(=O)c3cc(NC(=O)c4ccc(/C=C/c5cnc6ccccc6c5)cc4)cn3C)cn2C)CC1 ; retrieve measured MIC.
Key: > 32 µg/mL

Exercise: Any idea what its MIC is? The molecule is COCCOC1CCN(CCNC(=O)c2cc(NC(=O)c3cc(NC(=O)c4ccc(/C=C/c5ccc(OC)cc5)cc4)cn3C)cn2C)CC1.O=S(=O)(O)O
Key: > 32 µg/mL

Exercise: Fill in the blank: the reported MIC of Cn1cc(NC(=O)c2ccc(/C=C/c3ccncc3)cc2)cc1C(=O)Nc1cc(C(=O)NCCN2CCOCC2)n(CCCN2CCOCC2)c1.O=C(O)C(F)(F)F.O=C(O)C(F)(F)F is ____.
Key: > 32 µg/mL

Exercise: // lookup MIC for Cn1cc(NC(=O)c2cc(NC(=O)c3ccccc3)cn2C)cc1C(=O)NCCC(=N)N.O=C(O)C(F)(F)F
Key: > 32 µg/mL

Exercise: Given the molecule Cn1cc(NC(=O)c2ccc(/C=C/c3ccncc3)cc2)cc1C(=O)Nc1cc(C(=O)NCCN2CCOCC2)n(CCCCl)c1.O=C(O)C(F)(F)F.O=C(O)C(F)(F)F , what is its reported MIC?
Key: > 32 µg/mL

---

# Test system: Staphylococcus aureus
# Protocol notes: microbe, parasite or virus in culture
# Settings: ATCC 43300, 18 h, ASSAY_TEST Inhibition of Bacterial Growth, detection method Absorption (OD600), MEDIA CAMHB, plate type 384well, NBS, CORNING #3640
# Description: Antibacterial activity against Staphylococcus aureus MRSA ATCC 43300 (CO-ADD:GP_020); MIC in CAMBH media, using NBS plates, by OD(600)
MIC values for the compounds below.

Please review the entries below; each comes with its answer.
Exercise: Quick check: MIC of CC(C)CCn1cc(NC(=O)c2cc(NC(=O)c3cc(NC(=N)N)cn3C)cn2C)cc1C(=O)NCCCN(C)C.O=C(O)C(F)(F)F.O=C(O)C(F)(F)F ?
Key: > 32 µg/mL

Exercise: # get_value(readout='MIC', item= COc1ccc(/C=C/c2ccc(C(=O)Nc3cc(C(=O)Nc4cc(C(=O)NCCN5CCC(OC)CC5)n(C)c4)n(C)c3)cn2)cc1.O=C(O)C(F)(F)F.O=C(O)C(F)(F)F )
Key: 1 µg/mL

As a next step, examine the compound that follows.
Exercise: I am curious: what MIC value has been reported for CC(C)CCc1sc(NC(=O)c2cc(NC(=O)c3cc(NC(=N)c4ccccc4)cn3C)cn2C)nc1C(=O)NCCCN(C)C.O=C(O)C(F)(F)F.O=C(O)C(F)(F)F ?
Key: > 32 µg/mL

---

Quick reference for MIC among some compounds
# Tested on: Klebsiella pneumoniae
# Protocol notes: microbe, parasite or virus in culture
# Settings: ATCC 700603, 18 h, ASSAY_TEST Inhibition of Bacterial Growth, detection method Absorption (OD600), MEDIA CAMHB, plate type 384well, NBS, CORNING #3640
# Description: Antibacterial activity against Klebsiella pneumoniae MDR ATCC 70063 (CO-ADD:GN_003); MIC in CAMBH media using NBS plates, by OD(600)

Worked cases, answers included:
Exercise: Query: MIC; subject: COc1cccc(C(=N)Nc2cc(C(=O)Nc3nc(C(=O)NCCN4CCOCC4)c(CCc4ccccc4)s3)n(C)c2)c1.O=C(O)C(F)(F)F.O=C(O)C(F)(F)F
Key: > 32 µg/mL

Exercise: Give its MIC value. Item: CC(C)n1cc(NC(=O)c2cc(NC(=O)c3ccc(/C=C/c4cnc5ccccc5c4)cc3)cn2C)cc1C(=O)NCCN1CCOCC1.O=C(O)C(F)(F)F.O=C(O)C(F)(F)F
Key: > 32 µg/mL

Here is the next item to consider.
Exercise: May I ask what MIC has been recorded for Cn1cc(NC(=O)c2ccc(/C=C/c3cnc4ccccc4c3)cc2)cc1C(=O)Nc1cc(C(=O)NCCN2CCOCC2)n(CCCc2cn(CCc3ccccc3)nn2)c1.O=C(O)C(F)(F)F ?
Key: > 32 µg/mL

---

# Tested on: Acinetobacter baumannii
# Protocol notes: microbe, parasite or virus in culture
# Settings: ATCC 19606, 18 h, ASSAY_TEST Inhibition of Bacterial Growth, detection method Absorption (OD600), MEDIA CAMHB, plate type 384well, NBS, CORNING #3640
Readout label: MIC

Exercise: Name the reported MIC value associated with the molecule CC(C)CCc1sc(NC(=O)c2cc(NC(=O)c3cc(NC(=O)c4sc(N)nc4C(F)(F)F)cn3C)cn2C)nc1C(=O)NCCCN(C)C.O=C(O)C(F)(F)F
Key: > 32 µg/mL

Exercise: # query: MIC of entry COC1CCN(CCNC(=O)c2cc(NC(=O)c3cc(NC(=O)c4ccc(/C=C/c5ccc(N(C)C)cc5)nc4)cn3C)cn2C)CC1.O=C(O)C(F)(F)F.O=C(O)C(F)(F)F
Key: > 32 µg/mL

Now turn to the next molecule.
Exercise: Data request, read-out MIC, for COCCOC1CCN(CCNC(=O)c2cc(NC(=O)c3cc(NC(=O)c4ccc(/C=C/c5ccc6nonc6c5)cc4)cn3C)cn2C)CC1.O=S(=O)(O)O
Key: > 32 µg/mL

---

# System: Acinetobacter baumannii
# Protocol notes: microbe, parasite or virus in culture
# Settings: ATCC 19606, 18 h, ASSAY_TEST Inhibition of Bacterial Growth, detection method Absorption (OD600), MEDIA CAMHB, plate type 384well, NBS, CORNING #3640
Readout label: MIC

Answered examples (2):
Exercise: Entry under review: COc1cccc(/C=C/c2ccc(C(=O)Nc3cc(C(=O)Nc4cc(C(=O)NCCN5CCC(O)CC5)n(C)c4)n(C)c3)cc2)c1.O=C(O)C(F)(F)F . Reported MIC?
Key: > 32 µg/mL

Exercise: Requested read-out: MIC. Entry: CC(C)CCn1cc(NC(=O)c2cc(NC(=O)c3cc(NC(=N)c4cnc5ccccc5c4)cn3C)cn2C)cc1C(=O)NCCCN(C)C.O=C(O)C(F)(F)F.O=C(O)C(F)(F)F
Key: > 32 µg/mL

New cases:
Exercise: Which MIC reading was recorded for the compound COc1cccc(/C=C/c2ccc(C(=O)Nc3cc(C(=O)Nc4cc(C(=O)NCCC(=N)N)n(C)c4)n(C)c3)cc2)c1.O=C(O)C(F)(F)F ?
Key: > 32 µg/mL

---

Measured MIC of individual entries
# System: Pseudomonas aeruginosa
# Protocol notes: microbe, parasite or virus in culture
# Settings: ATCC 27853, 18 h, ASSAY_TEST Inhibition of Bacterial Growth, detection method Absorption (OD600), MEDIA CAMHB, plate type 384well, NBS, CORNING #3640
# Description: Antibacterial activity against Pseudomonas aeruginosa ATCC 27853 (CO-ADD:GN_042); MIC in CAMBH media using NBS plates, by OD(600)

// worked examples, MIC included
Exercise: Requested read-out: MIC. Entry: COCCOC1CCN(CCNC(=O)c2cc(NC(=O)c3cc(NC(=O)c4ccc(/C=C/c5cnc6ccccc6c5)cc4)cn3C)cn2C)CC1
Key: > 32 µg/mL

Exercise: Fill in the blank: the reported MIC of Cn1cc(NC(=O)c2cc(NC(=N)c3ccccc3)cn2C)cc1C(=O)NCCC(=N)N.O=C(O)C(F)(F)F.O=C(O)C(F)(F)F is ____.
Key: > 32 µM

Exercise: Need MIC of COc1cccc(/C=C/c2ccc(C(=O)Nc3cc(C(=O)Nc4cc(C(=O)NCCN5CCOCC5)n(C(C)C)c4)n(C)c3)cc2)c1.O=C(O)C(F)(F)F , thanks.
Key: > 32 µg/mL

Exercise: Looking for the measured MIC of Cn1cc(NC(=O)c2ccc(/C=C/c3cnc4ccccc4c3)cc2)cc1C(=O)Nc1nc(C(=O)NCCN2CCOCC2)c(C2CCCCC2)s1.O=C(O)C(F)(F)F.O=C(O)C(F)(F)F , can you help?
Key: > 32 µg/mL

Exercise: I am curious: what MIC value has been reported for CC(=O)/C=C/c1ccc(C(=O)Nc2cc(C(=O)Nc3cc(C(=O)NCCN4CCOCC4)n(C)c3)n(C)c2)cc1.O=C(O)C(F)(F)F ?
Key: > 32 µg/mL

Now take the following compound into account.
Exercise: So what does the record say about MIC for CC(C)CCn1cc(NC(=O)c2cc(NC(=O)c3cc(NC(=N)N)cn3C)cn2C)cc1C(=O)NCCCN(C)C.O=C(O)C(F)(F)F.O=C(O)C(F)(F)F ?
Key: > 32 µg/mL

Reference for the values: ChEMBL document CHEMBL4513139
